- Target Or Test System: Paired box protein Pax-8 (Homo sapiens, UniProt Q06710)
- Sequence (Q06710 whole entry): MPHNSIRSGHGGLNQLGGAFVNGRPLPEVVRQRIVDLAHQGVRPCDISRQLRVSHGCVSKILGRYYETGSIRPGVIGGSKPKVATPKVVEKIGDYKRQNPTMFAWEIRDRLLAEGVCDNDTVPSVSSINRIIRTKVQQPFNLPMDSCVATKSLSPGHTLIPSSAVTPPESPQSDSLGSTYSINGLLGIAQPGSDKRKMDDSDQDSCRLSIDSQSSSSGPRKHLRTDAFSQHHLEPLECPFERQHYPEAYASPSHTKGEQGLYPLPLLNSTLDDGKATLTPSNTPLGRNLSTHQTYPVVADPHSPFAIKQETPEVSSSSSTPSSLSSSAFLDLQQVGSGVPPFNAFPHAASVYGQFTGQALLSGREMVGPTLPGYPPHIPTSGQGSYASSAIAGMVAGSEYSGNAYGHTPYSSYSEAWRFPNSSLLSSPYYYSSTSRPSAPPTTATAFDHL
- Protocol Summary: PAX8 transcriptional activity inhibition in RMG-I – RMG-I cells, luciferase, cherry-pick, dose response (AID 687027);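 note: luciferase reporter driven by Pax8 target thyroperoxidase promoter measured by SteadyGlo luminescence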
- Type: functional, cell-based
The source made the active and inactive calls. The rule behind the calls is not given here.
Measured Attribute: AC50

COc1cccc(C#Cc2ccc3c(c2)O[C@@H](CN(C)C(=O)c2ccccn2)[C@H](C)CN([C@@H](C)CO)S3(=O)=O)c1 : 5170 nM (active)
CCOc1ccc(C(CN2CCOCC2)C(C)=O)cc1OC (stereo not drawn) : 1680 nM (active)
Cc1ccc(S(=O)(=O)N(C)C[C@@H]2Oc3cc(C#Cc4ccncc4)ccc3S(=O)(=O)N([C@@H](C)CO)C[C@H]2C)cc1 : 2510 nM (active)
